system: K4 kissing-loop RNA reporter; experiment: apparent KD of K4 kissing-loop reporter; higher = weaker reporter binding; details: Eterna round: R107; input ligand: tryptophan 2.4 mM;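 note: bound reporter read as fluorescence of individual clusters on recovered sequencing chips by microscopy, with normalized cluster intensities fitted with a binding model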
Would you kindly list apparent KD of K4 kissing-loop reporter for each of these sequences?
The response must be a number in nM with no trailing unit.

Documented apparent KD of K4 kissing-loop reporter of CAUACGCAUGGAGGAUAUGAGAUUUCUCAUAUUAUUUAAUAUUCUCAGUGAUGUUGAGAAUUUAACUCAGAAGGCCAUGUGUAUG [Ex FMN B 5] : 152

Documented apparent KD of K4 kissing-loop reporter of UUAGCCCUAUAGGGCAAGACCUAUACUGAUACCAGAGGGUAUACCCUCCCUUGGCAGCGGAUCGAGUGAUGUUCGUAAGGUCAUU [AK4.4 SS Theophylline A] : 572

Documented apparent KD of K4 kissing-loop reporter of AUUAAUAACAGAGGAUAUGCAUUUUUAUUAUUUUUUAUUAUUAUAUGCAGUGAUGUUGCAUAUUAAGCAGAAGGCUGAUUUAUUU [JR_SSFMNB_Sub013] : 102

Documented apparent KD of K4 kissing-loop reporter of AAGAGCUAGGCGGCCGCCACUAGUUGUGAACACAUACAAGCCAGUGAUGUUGGUAUGGUGGACGGUAGGACCGGGCCUAGCUGAA [Exclusion - Tryptophan B (Freestyle 16)] : 283

Documented apparent KD of K4 kissing-loop reporter of AGGUCCGAGCCCGGAAGGGCUCGGACCUGUUAGGAUAUGACGUUAUUCAGAAGGGAUGGGUGGAGUGAUGUUCCACCCGAGAGGG [#2 Same State - FMN A Attempt #17 (HarryS)] : 98.3

Documented apparent KD of K4 kissing-loop reporter of GGUAGCAUGGCGGCCGCCACUGUUCGUGUUGCUAGCAGAUUCCAGUGAUGUUGGAAGCCUAGGUACAGGACCGGGCCAUGCUACC : 103

Documented apparent KD of K4 kissing-loop reporter of GCUAUGGUAGGAAGGAGCGCGGACGAUAUUUAUCGAGUGAUGUUCGAAUAAUUAAAUAAAACGCAGGUAGGUCGCCUACUAUAGC [Arginine B K4 27] : 94

Documented apparent KD of K4 kissing-loop reporter of AAGCCAGAGAUUGCUGCGGGUUCCAGAGAUACCAGCCGUAUUGAAGGCCCUUGGCAGCUCGAGUGAUGUUCGAGCCGUCUCCGGC [Onte] : 113

Documented apparent KD of K4 kissing-loop reporter of UGAUACCAGACGGCCGCCACUGCACCAGUCAAUGACUGAGCGCGGUGGCGCUCAGUGAUGUUGAGCAGGACCGGGUCUGGUAUCU [Mod of Eli's TrypBX 8 v4] : 93.9

Documented apparent KD of K4 kissing-loop reporter of GUGCGGCUAGUGAUGUUGGUUGUGUGGGAAGGAGCGCAGAUACAUGCAGGUAGGUCGCCCACACCUCUGAAAGGAGGCUAAUUCA [KL-SSArg-A15] : 350

Documented apparent KD of K4 kissing-loop reporter of AGAAGAUAUCGUGAUACCAGACCGCGGAGAGGCCGGAAGAGGGUAGUGAUGUUGCAUGCAGUCCCUUGGCAGCACUGACAGUAUU [theeternabot_sameState_KL_Theo_B_40] : 601

###

tested on: MS2 coat protein; test: apparent KD of MS2 coat protein, switch ON state; designed switch direction (-1 OFF switch, 1 ON switch): -1; higher = weaker reporter binding; details: FMN input: 0 or 200 uM; Eterna round: R93 (includes R88 designs)
Would you kindly list apparent KD of MS2 coat protein for each of these sequences?
The response must be a number in nM with no trailing unit.

Per the reported MS2 coat protein data, AAGAAGUGAGGAUAUGCUUGUCGUCACAAAAGUGAUGACGAGCAGAAGGCACAUGAGGAUCACCCAUGUAAAGA [Opal 27] has apparent KD of MS2 coat protein of 37.1

Per the reported MS2 coat protein data, GGUUUGGUAGGAUAUACAUGAGGAUCACCCAUGUGAGAGAAAAAAGUGAGAAAGAAAAGUAGAAGGACCGGACG [salish99-ex3-123] has apparent KD of MS2 coat protein of 39.9

Per the reported MS2 coat protein data, AAAAAACAUGAGGAUCACCCAUGUCAGGAUAUCUGUAUAAAUAAAAAAAUAAAAAUACAGAGAAGGGACAAAAA [Ex1: 608] has apparent KD of MS2 coat protein of 50.5

Per the reported MS2 coat protein data, AAGAAGGGAGGAUAUACAAAAUAAAAGAAAAGAAAGAAAGAACAUGAGGAUCACCCAUGUAGAAGGCCUAAGAA [Merneferre Ay I] has apparent KD of MS2 coat protein of 23.8

Per the reported MS2 coat protein data, AAAAGCUUAGGAUAUACACAAAAUAAAGGAGUGAUAUCAGAACAUGAGGAUCACCCAUGUAGAAGGAAGAAAUA [Ceerle] has apparent KD of MS2 coat protein of 65.3

Per the reported MS2 coat protein data, AACAAGUCAGGAUAUCAUACUAAUCACUUGCUUUAAAUGUAUGAGAAGGGACAUGAGGAUCACCCAUGUAAAGA [Exclusion4-cac3] has apparent KD of MS2 coat protein of 46.8

Per the reported MS2 coat protein data, AAUAACACAGGAUAUACUAAAGAAAUGAAAAGAAAUAAAGAACAUGAGGAUCACCCAUGUAGAAGGGUGAAUAA [Shenshek] has apparent KD of MS2 coat protein of 204

Per the reported MS2 coat protein data, AAGAACCAAGGAUAUACAUGAGGAUCACCCAUGUAAAAGAAAGAAAAGGGAAAGAAAAGUAGAAGGUGGAAGAA [Userkheperure Seti II] has apparent KD of MS2 coat protein of 25.7

Per the reported MS2 coat protein data, AGAUAGUCAGGAUAUACGAACAAGAAAAAAGACGAGAACGGACAUGAGGAUCACCCAUGUAGAAGGGACUAGAA [Diamond 11] has apparent KD of MS2 coat protein of 45

Per the reported MS2 coat protein data, GAGAAGUGAGGAUAUCGAAGACAGACGAAAAGUCUGUCAAACGAGAAGGCACAUGAGGAUCACCCAUGUGGGAG [Mat - Exaclusion 4 - Eli mod - D75] has apparent KD of MS2 coat protein of 81.2

Per the reported MS2 coat protein data, AAAAAUCGAGGAUAUACAUGAGGAUCACCCAUGUCAAAAAAUGACUACACAAAAGAAAGUAGAAGGCGAUAAAG [Mat - Exclusion 3 - Mayanna mod - D129] has apparent KD of MS2 coat protein of 25

Per the reported MS2 coat protein data, AAAAAGAUAGGAUAUACGAACAUGUCAAAAGACGUGAAGGGACAUGAGGAUCACCCAUGUAGAAGGGUUAAAAA [JL Wide Open 38] has apparent KD of MS2 coat protein of 155

Per the reported MS2 coat protein data, UGUUGGCGAGGAUAUACAUGAGGAUCACCCAUGUGAGAGAAAAAAGUGAGAAAGAAAAGUAGAAGGCGCUGACA [salish99-ex3-07] has apparent KD of MS2 coat protein of 46.2

Per the reported MS2 coat protein data, AAAUUGUCAGGAUAUCGUAGAACAGGGAAAACCUGGAGCUACGAGAAGGGACAUGAGGAUCACCCAUGUAAAAC [May 93] has apparent KD of MS2 coat protein of 62.7

Per the reported MS2 coat protein data, AAAAGGGCAGGAUAUGCGUACUCACGGGAAAACUGAAUGGUACAUGAGGAUCACCCAUGUAGAAGGGCUAAAAA [Dora Explored 19 - Jieux - Exclusion 2] has apparent KD of MS2 coat protein of 54.6

Per the reported MS2 coat protein data, AGCUAGUCAGGAUAUACGAAAAUGAUAGAAGACGUAAGGGAACAUGAGGAUCACCCAUGUAGAAGGGACUAGCA [Diamond 47] has apparent KD of MS2 coat protein of 24.7

Per the reported MS2 coat protein data, GGUUGGCGAGGAUAUACAUGAGGAUCACCCAUGUGAGAGAAAAAAGUGAGAAAGAAAAGUAGAAGGCGCUGACA [salish99-ex3-03] has apparent KD of MS2 coat protein of 58.8

Per the reported MS2 coat protein data, AAAAACUGAGGAUAUACAUGAGGAUCACCCAUGUGAAAGAAAGAAAAAAGAAAAGAAAGUAGAAGGCAGAAAAA [Ruby 76] has apparent KD of MS2 coat protein of 34

Per the reported MS2 coat protein data, AGUAGUACAGGAUAUACAUGAGGAUCACCCAUGUGAAAAAUAAGUGGCGUACCACAAAGUAGAAGGGUACUACA [Mat - Exclusion 3 - JL mod - D37] has apparent KD of MS2 coat protein of 29.9

Per the reported MS2 coat protein data, AAGAACGCAGGAUAUACAUGAGGAUCACCCAUGUAAAAGAAAGAGGGAAAAGAGAAAAGUAGAAGGGCGAAGAA [Setepenre-meryamun Ptolemy I Soter] has apparent KD of MS2 coat protein of 37

Per the reported MS2 coat protein data, AAAAACAGAGGAUAUACAAAAUUAUGACGAAAGUCAUAAAAACAUGAGGAUCACCCAUGUAGAAGGCUGGAAAA [Mat - Mod of Meechl] has apparent KD of MS2 coat protein of 28.5

Per the reported MS2 coat protein data, AAAAUGUCAGGAUAUGCGAAGGCGUCUGACAGACGAGGAUUGCAGAAGGGACAUGAGGAUCACCCAUGUAAAAA [A Change in Energy (MS2 Riboswitch - Exclusion 4)] has apparent KD of MS2 coat protein of 84.3

Per the reported MS2 coat protein data, AAAAAACAUGAGGAUCACCCAUGUAAGGAUAUCGUGCAGAAAAAAAAAAAAAACUGCACGAGAAGGUACAAGGA [Brourd - Exclusion 1 - Sub 1] has apparent KD of MS2 coat protein of 36.1
